Biological target: Arachidonate 5-lipoxygenase (Bos taurus) (UniProt Q9BEG3)
Assay: Inhibition of bovine 5-LOX assessed as inhibition of calcium ionophore A23187-induced leukotriene B4 formation at 10 uM by reversed phase HPLC analysis
Reported endpoint: inhibition (%)

Some solved cases for reference:
CC(=O)Oc1c(C(=O)O)sc2ccccc12 = 37
C/C(=N/NC(=O)c1sc2cc(Cl)ccc2c1O)c1ccccc1 = 32
Cc1ccc2c(O)c(C(=O)O)sc2n1 = 34

P = CC(C)=NNC(=O)c1sc2cc(Cl)ccc2c1O
Q = COC(=O)c1sc2ccccc2c1O
R = O=C(O)c1sc2ncccc2c1O
Qu. Sort the compounds on inhibition; start with the lowest figure. State the ranking by listing the labels in the requested order.
Ans. Q, P, R
(Q: 0%, P: 22%, R: 49%)

###

Biological target: UniProt:Q9BEG3
Sequence (Q9BEG3 whole entry): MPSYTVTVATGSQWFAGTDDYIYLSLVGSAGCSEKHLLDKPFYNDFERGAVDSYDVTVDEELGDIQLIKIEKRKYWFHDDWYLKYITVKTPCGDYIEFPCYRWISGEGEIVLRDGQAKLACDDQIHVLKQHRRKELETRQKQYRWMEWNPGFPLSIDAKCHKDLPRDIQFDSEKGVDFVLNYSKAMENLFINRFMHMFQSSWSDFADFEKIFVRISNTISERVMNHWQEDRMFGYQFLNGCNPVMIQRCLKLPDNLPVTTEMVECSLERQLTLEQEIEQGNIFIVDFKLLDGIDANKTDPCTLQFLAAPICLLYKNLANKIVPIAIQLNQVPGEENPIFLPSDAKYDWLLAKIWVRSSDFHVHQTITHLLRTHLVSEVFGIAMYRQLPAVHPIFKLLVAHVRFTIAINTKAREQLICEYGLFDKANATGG
Assay: Inhibition of bovine 5-LOX assessed as inhibition of calcium ionophore A23187-induced leukotriene B4 formation by reversed phase HPLC analysis
pIC50: −log10 of the molar value.
Reported endpoint: pIC50

Previously resolved entries follow.
CC1(C)Cc2c(-c3ccccc3)c(-c3ccc(Cl)cc3)c(CC(=O)O)n2C1 = 6.12
COc1cccc2c(O)c(C(=O)O)sc12 = 5.47

I = O=C(O)c1sc2cc(Cl)ccc2c1O
II = O=C(O)c1sc2ccccc2c1O
III = O=C(O)c1sc2c(Cl)cccc2c1O
Qu. Please rank these molecules by pIC50 in descending order. Reply: labels, ordered per the request.
Ans. III, I, II

###

Biological target: Prostaglandin G/H synthase 1 (Bos taurus)
Sequence (whole entry): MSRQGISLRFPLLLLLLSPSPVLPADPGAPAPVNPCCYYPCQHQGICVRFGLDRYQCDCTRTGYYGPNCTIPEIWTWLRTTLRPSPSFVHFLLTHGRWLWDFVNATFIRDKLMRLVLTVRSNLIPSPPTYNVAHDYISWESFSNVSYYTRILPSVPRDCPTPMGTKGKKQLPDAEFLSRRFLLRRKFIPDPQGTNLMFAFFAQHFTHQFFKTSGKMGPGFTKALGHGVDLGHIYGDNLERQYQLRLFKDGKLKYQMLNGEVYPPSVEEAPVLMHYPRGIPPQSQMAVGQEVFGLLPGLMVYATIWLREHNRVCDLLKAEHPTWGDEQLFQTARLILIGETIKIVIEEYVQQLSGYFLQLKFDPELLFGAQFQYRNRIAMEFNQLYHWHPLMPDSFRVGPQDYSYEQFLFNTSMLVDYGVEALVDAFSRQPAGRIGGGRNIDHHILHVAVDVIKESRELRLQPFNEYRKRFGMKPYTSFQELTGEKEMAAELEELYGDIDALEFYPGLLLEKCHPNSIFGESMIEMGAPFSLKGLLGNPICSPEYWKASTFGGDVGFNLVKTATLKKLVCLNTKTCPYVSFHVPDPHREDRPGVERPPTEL
Experiment: Inhibition of bovine COX1 assessed as inhibition of calcium ionophore A23187-induced 12-hydroxyheptadecatrienoic acid formation at 10 uM by reverse-phase HPLC analysis
Reported endpoint: inhibition (%)

Completed entries (count: 2):
O=C(O)c1sc2ncccc2c1O = 36
O=C(O)c1sc2ccccc2c1O = 0

I = CC(=O)Oc1c(C(=O)O)sc2ccccc12
II = CC(C)=NNC(=O)c1sc2cc(Cl)ccc2c1O
III = Cc1ccc2c(O)c(C(=O)O)sc2n1
Qu. Reorder the items by inhibition, least to greatest. Quick reminder: the answer is the labels in the order asked.
Ans. I, II, III

###

Target: Prostaglandin G/H synthase 1 (Bos taurus)
Experiment: Inhibition of bovine COX1 assessed as inhibition of calcium ionophore A23187-induced 12-hydroxyheptadecatrienoic acid formation by reverse-phase HPLC analysis
Reported endpoint: IC50 (nM)

// worked examples, IC50 included
C/C(=N/NC(=O)c1sc2cc(Cl)ccc2c1O)c1ccccc1 = 7700
COc1cccc2c(O)c(C(=O)O)sc12 = 3600
O=C(O)c1sc2cc(Cl)ccc2c1O = 410

a = O=C(O)c1sc2c(Cl)cccc2c1O
b = CC1(C)Cc2c(-c3ccccc3)c(-c3ccc(Cl)cc3)c(CC(=O)O)n2C1 [LICOFELONE]
Qu. Which is greater in IC50, the first item a or the second item b ? Provide the label of your selected option as the answer.
Ans. a
(a: 2500 nM, b: 150 nM)

Each recorded value in this set is attributed to ChEMBL document CHEMBL2057179.
